- studySystem: TAOK3 (human) (UniProt Q9H2K8)
- Sequence (Q9H2K8 whole entry, looked up): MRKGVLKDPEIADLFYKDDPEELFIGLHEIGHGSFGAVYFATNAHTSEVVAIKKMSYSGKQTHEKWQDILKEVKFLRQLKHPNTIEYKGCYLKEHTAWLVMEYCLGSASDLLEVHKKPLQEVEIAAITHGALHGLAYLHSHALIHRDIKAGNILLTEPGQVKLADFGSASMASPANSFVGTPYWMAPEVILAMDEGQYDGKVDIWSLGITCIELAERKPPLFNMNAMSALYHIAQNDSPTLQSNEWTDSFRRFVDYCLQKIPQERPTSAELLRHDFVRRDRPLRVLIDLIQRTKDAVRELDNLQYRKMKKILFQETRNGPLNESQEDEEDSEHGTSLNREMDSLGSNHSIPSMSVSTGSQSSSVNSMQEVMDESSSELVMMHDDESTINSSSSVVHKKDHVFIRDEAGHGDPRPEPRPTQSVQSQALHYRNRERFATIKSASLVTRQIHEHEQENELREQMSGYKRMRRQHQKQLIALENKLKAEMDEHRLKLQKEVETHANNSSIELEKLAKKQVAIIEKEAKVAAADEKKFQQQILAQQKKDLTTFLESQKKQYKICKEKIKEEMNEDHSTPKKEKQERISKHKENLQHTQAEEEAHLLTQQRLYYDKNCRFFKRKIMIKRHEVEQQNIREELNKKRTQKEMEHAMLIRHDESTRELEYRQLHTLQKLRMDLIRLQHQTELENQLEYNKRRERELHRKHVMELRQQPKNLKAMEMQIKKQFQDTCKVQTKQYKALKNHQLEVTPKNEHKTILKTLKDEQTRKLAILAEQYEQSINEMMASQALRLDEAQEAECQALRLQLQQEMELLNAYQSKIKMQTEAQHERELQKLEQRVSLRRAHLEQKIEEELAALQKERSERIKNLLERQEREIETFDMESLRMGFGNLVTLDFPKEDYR
- assayText: radiometric filter-binding kinase assay, Kinase HotSpot
- details: compound 0.5 µM; ATP 10 µM
Rule: residual activity of 90% or more gives y; anything lower gives n.

Field: example entries. Status: answers known.
lineNotation	assignedCategory
COc1cc2c(Nc3ccc(Br)cc3F)ncnc2cc1OCC1CCN(C)CC1	y
FC(F)(F)c1ccc(/C=C/c2nc(COc3ccc(CCCCn4ccnn4)cc3)co2)cc1	y
COc1cc2c(N3CCN(C(=O)Nc4ccc(OC(C)C)cc4)CC3)ncnc2cc1OCCCN1CCCCC1	y
O=C1NC(=O)c2c1c1c3ccccc3[nH]c1c1[nH]c3cc(Br)ccc3c21	n
Cn1cc(/C=C2\C(=O)Nc3ccc(S(N)(=O)=O)cc32)c2ccccc21	n

# ---- query molecule ----
Kindly determine if residual activity recorded for "O=C(c1ccccc1)c1ccc(N2CCOCC2)cc1O" is above or exactly 90%. y

----------
Could you please report measured residual activity for the items listed next?
- studySystem: MAP3K14 (human) (UniProt Q99558)
- Sequence (Q99558 whole entry, looked up): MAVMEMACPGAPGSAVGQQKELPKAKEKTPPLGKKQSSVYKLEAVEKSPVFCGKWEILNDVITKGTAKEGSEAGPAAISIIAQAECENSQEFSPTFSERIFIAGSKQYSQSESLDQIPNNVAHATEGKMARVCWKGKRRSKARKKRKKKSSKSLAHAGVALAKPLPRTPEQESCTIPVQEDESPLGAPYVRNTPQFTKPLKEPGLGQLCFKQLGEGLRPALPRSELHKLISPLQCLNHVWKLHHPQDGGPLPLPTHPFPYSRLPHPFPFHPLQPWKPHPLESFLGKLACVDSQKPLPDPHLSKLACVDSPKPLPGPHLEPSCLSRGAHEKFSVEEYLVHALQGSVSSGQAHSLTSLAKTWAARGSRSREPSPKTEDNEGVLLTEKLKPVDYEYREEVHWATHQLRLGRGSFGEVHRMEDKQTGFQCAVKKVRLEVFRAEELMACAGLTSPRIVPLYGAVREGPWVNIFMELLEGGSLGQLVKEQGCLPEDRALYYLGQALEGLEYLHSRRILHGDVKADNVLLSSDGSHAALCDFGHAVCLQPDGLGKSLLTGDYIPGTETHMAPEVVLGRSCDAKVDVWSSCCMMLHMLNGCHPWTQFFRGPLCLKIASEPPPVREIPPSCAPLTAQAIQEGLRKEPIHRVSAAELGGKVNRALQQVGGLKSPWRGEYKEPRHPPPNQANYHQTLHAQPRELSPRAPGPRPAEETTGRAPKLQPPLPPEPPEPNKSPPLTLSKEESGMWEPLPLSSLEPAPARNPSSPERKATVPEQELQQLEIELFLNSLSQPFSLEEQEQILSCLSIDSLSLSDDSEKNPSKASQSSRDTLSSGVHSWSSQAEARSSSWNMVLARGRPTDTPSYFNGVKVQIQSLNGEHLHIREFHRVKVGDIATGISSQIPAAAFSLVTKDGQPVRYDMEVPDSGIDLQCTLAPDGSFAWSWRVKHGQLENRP
- assayText: radiometric filter-binding kinase assay, Kinase HotSpot
- details: compound 0.5 µM; ATP 10 µM
Give bare numbers, in %.

Examples with answers:
lineNotation	reportedValue
COc1cc2c(Nc3ccc(Br)cc3F)ncnc2cc1OCC1CCN(C)CC1	155
O=c1c2ccccc2[nH]c(=S)n1CCN1CCC(=C(c2ccc(F)cc2)c2ccc(F)cc2)CC1	75.7
FC(F)(F)c1ccc(/C=C/c2nc(COc3ccc(CCCCn4ccnn4)cc3)co2)cc1	95.8
Cc1cc(Nc2nc(-c3ccccc3)nc3ccccc23)n[nH]1	93.5

Hey, quick one: what's residual activity for each of these?
1. CCCCc1c(-c2ccc(O)cc2)[nH]c2nccnc12
2. O=C(c1ccccc1)c1ccc(N2CCOCC2)cc1O
3. O=c1cc(N2CCOCC2)oc2c(-c3ccccc3)cccc12
4. Nc1ncnc2c1cnn2-c1ccccc1
5. N/C(=N\N=C/c1ccc(-c2cccc([N+](=O)[O-])c2)o1)N[N+](=O)[O-]
6. N#CCCc1ccc2c(c1)-c1[nH]c3ccc([N+](=O)[O-])cc3c1CC(=O)N2
7. O=C(O)c1ccc2c3c1cccc3c(=O)n1c3ccccc3nc21

95.4
75.1
101
120
77.9
161
94.8

Hey, quick one: what's residual activity for each of these?
1. c1ccc(-c2cnc(Nc3ccc(OCCN4CCCC4)cc3)s2)cc1
2. O=C1NC(=O)c2cc(Nc3ccc(F)cc3)c(Nc3ccc(F)cc3)cc21
3. COc1cc2c(N3CCN(C(=O)Nc4ccc(OC(C)C)cc4)CC3)ncnc2cc1OCCCN1CCCCC1
4. COc1cccc(-c2cc(=O)c3ccccc3o2)c1N
5. COc1cc2ncnc(Nc3ccc(O)c(Br)c3)c2cc1OC
6. COc1cc2c(cc1OC)-c1[nH]nc(Nc3cccc(F)c3)c1C2
7. O=c1[nH]c2ccccc2n1C1CCN(Cc2ccc(-c3nc4cc5[nH]cnc5cc4nc3-c3ccccc3)cc2)CC1

81.9
117
98.6
108
82.6
105
96.8

Hey, quick one: what's residual activity for each of these?
1. N#Cc1c(NC(=O)c2cccc3ccccc23)sc2c1CCCC2
2. O=c1c(-c2ccc(F)cc2)c(-c2ccncc2)[nH]n1-c1ccc(Cl)cc1
3. CCc1nc(-c2ccc(OC)cc2)[nH]c1-c1ccncc1
4. O=S(=O)(NCCNC/C=C/c1ccc(Br)cc1)c1cccc2cnccc12

1: 111; 2: 102; 3: 118; 4: 83.6
